Taken from patent US8841413B2.

Assay: Stability in simulated gastric fluid
Assay type: in vitro ADME
Settings: 2 μM, 37° C., 24 h, pH 1.5, pepsin
Procedure: Reactions were terminated by the addition of TFA/H2O (15 mL, 10% (v/v)). […] The column was equilibrated with TFA/H2O, at a flow rate of 1 mL/min. […] The absorbance was monitored at 206 nm using UV detector and peaks were collected manually prior to ESI-MS analysis.
Would you mind telling me the reported % degradation in 24 h when incubated with simulated gastric fluid of each entry?
Answers are plain numbers, in %.

Here's what some known entries look like.
CCc1cc(OC)ccc1-c1ccc(CC(NC(=O)[C@H](CC(=O)O)NC(=O)[C@H](CO)NC(=O)[C@@H](NC(=O)[C@H](Cc2ccccc2)NC(=O)[C@@H](NC(=O)CNC(=O)[C@H](CCC(N)=O)NC(=O)C2(NC(=O)[C@@H](N)Cc3c[nH]cn3)CC2)[C@@H](C)O)[C@@H](C)O)C(=O)NC(Cc2ccc(-c3ccccc3C)cc2)C(N)=O)cc1 (single isomer, unassigned) | 49
CCc1cc(OC)ccc1-c1ccc(CC(NC(=O)[C@H](CC(=O)O)NC(=O)[C@H](CO)NC(=O)[C@@H](NC(=O)[C@H](Cc2ccccc2)NC(=O)[C@@H](NC(=O)CNC(=O)[C@H](CCC(N)=O)NC(=O)C(C)(C)NC(=O)[C@@H](N)Cc2c[nH]cn2)[C@@H](C)O)[C@@H](C)O)C(=O)NC(Cc2ccc(-c3ccccc3F)cc2)C(N)=O)cc1 (single isomer, unassigned) | 45

With those in mind, consider the next molecule.
Recorded % degradation in 24 h when incubated with simulated gastric fluid for CCc1cc(OC)ccc1-c1ccc(CC(NC(=O)[C@H](CC(=O)O)NC(=O)[C@H](CO)NC(=O)[C@@H](NC(=O)C(C)(Cc2ccccc2F)NC(=O)[C@@H](NC(=O)CNC(=O)[C@H](CCC(N)=O)NC(=O)[C@H](CO)NC(=O)[C@@H](N)Cc2c[nH]cn2)[C@@H](C)O)[C@@H](C)O)C(=O)NC(Cc2ccc(-c3ccccc3C)nc2)C(N)=O)cc1 (single isomer, unassigned) , please?
14
